B1: C22orf15 (parent)
chain: ITQSWQVSVRVQPRGRAHLLPNPY

- Variants of: B1
- Procedure summary: protein stability index of a GFP-peptide fusion (GPS, HEK-293T) (PSI 1-6); higher = more stable;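 also: lentivirally expressed fusions sorted by FACS into six bins by GFP to DsRed ratio, PSI derived from sequencing read proportions per bin multiplied by bin number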
- Condition summary: c terminus: a fixed tail appended
Assay endpoint: protein stability index
Returns: the value as a bare number; no unit string appended.

Look over these answered cases.
1. Y24N
1.54
2. P23Q
1.93
3. S4F
3.65

Request: Identify the reported protein stability index for the following entry. `H18N`
Result: 2.99

Request: Tell me measured protein stability index for `Q6N` please.
Result: 1.73

Request: Given `I1C` , respond with its protein stability index.
Result: 4.55

Request: Let me know recorded protein stability index for `W5H` , thanks.
Result: 2.57

Request: Tell me its protein stability index given `V11R` as the entry.
Result: 1.86
